Assay: in vitro
Conditions: monkey, Vero cells
Description: Selectivity index, ratio of IC50 for cytotoxicity against african green monkey Vero cells assessed as inhibition of cell growth to IC50 for antileishmanial activity against Leishmania donovani MHOM/IN/95/9515 promastigotes assessed as inhibition of parasite growth
Kindly supply the reported selectivity ratio values for the records listed here.

Guide cases for selectivity ratio, answers given:
{"COMPOUND STRUCTURE": "O=[N+]([O-])c1ccc(/C=N/N=C/c2ccc(Br)cc2)o1", "selectivity ratio": 28}
{"COMPOUND STRUCTURE": "O=[N+]([O-])c1ccc(/C=N/N=C/c2ccccc2)s1", "selectivity ratio": 45}
{"COMPOUND STRUCTURE": "O=[N+]([O-])c1ccc(/C=N/N=C/c2ccc(OCc3ccccc3)cc2)o1", "selectivity ratio": 62}
{"COMPOUND STRUCTURE": "O=[N+]([O-])c1ccc(/C=N/N=C/c2ccc(F)cc2)s1", "selectivity ratio": 50}

Would you mind listing selectivity ratio for each of the following compounds?
1. O=[N+]([O-])c1ccc(/C=N/N=C/c2ccc(Cl)cc2)o1
2. Cc1ccc(/C=N/N=C/c2ccc([N+](=O)[O-])o2)cc1

Result string:
1: 149; 2: 132

----------
Test: in vitro
Settings: monkey, Vero cells
Description: Selectivity index, ratio of IC50 for cytotoxicity against african green monkey Vero cells assessed as inhibition of cell growth to IC50 for antileishmanial activity against Leishmania major IR-173 amastigote assessed as inhibition of parasite growth
Kindly supply the reported selectivity ratio values for the records listed here.
Numbers only.

{"COMPOUND STRUCTURE": "O=Cc1ccc([N+](=O)[O-])o1", "selectivity ratio": 3}

Would you mind listing selectivity ratio for each of the following compounds?
1. O=[N+]([O-])c1ccc(/C=N/N=C/c2ccc(Br)cc2)o1
2. O=[N+]([O-])c1ccc(/C=N/N=C/c2ccc([N+](=O)[O-])o2)cc1
3. O=[N+]([O-])c1ccc(/C=N/N=C/c2ccc(F)cc2)o1
4. O=[N+]([O-])c1ccc(/C=N/N=C/c2ccc(Cl)cc2)o1

Result string:
159
1
13
40

----------
Test system: Leishmania donovani
Test: Antileishmanial activity against Leishmania donovani MHOM/IN/95/9515 promastigotes assessed as inhibition of parasite growth incubated for 48 hrs by resazurin staining based analysis
Format: functional, organism-based
Details: MHOM/IN/95/9515, 48 h
QUANTITY NAME: pIC50
Give bare numbers, as −log10 of the molar value.

Would you mind listing pIC50 for each of the following molecules?
1. O=[N+]([O-])c1ccc(/C=N/N=C/c2ccccc2)o1
2. O=[N+]([O-])c1ccc(/C=N/N=C/c2ccc(F)cc2)o1
3. O=[N+]([O-])c1ccc(/C=N/N=C/c2ccc([N+](=O)[O-])o2)cc1

Result string:
1: 5.84; 2: 5.93; 3: 6.15

----------
Test system: THP-1
Experiment: cells
Type: functional, cell-based
Settings: Homo sapiens, THP-1, 72 h
Description: Cytotoxicity against human THP-1 cells assessed as inhibition of cell growth incubated for 72 hrs by resazurin staining based analysis
pIC50: −log10 of the molar value.
QUANTITY NAME: pIC50

Guide cases for pIC50, answers given:
{"COMPOUND STRUCTURE": "O=[N+]([O-])c1ccc(/C=N/N=C/c2ccc(Cl)cc2)o1", "pIC50": "< 4.00"}
{"COMPOUND STRUCTURE": "O=[N+]([O-])c1ccc(/C=N/N=C/c2ccc(F)cc2)o1", "pIC50": 4.20}
{"COMPOUND STRUCTURE": "O=Cc1ccc([N+](=O)[O-])o1", "pIC50": 4.09}
{"COMPOUND STRUCTURE": "O=[N+]([O-])c1ccc(/C=N/N=C/c2ccc(OCc3ccccc3)cc2)o1", "pIC50": "< 4.00"}

Would you mind listing pIC50 for each of the following molecules?
1. O=[N+]([O-])c1ccc(/C=N/N=C/c2ccccc2)o1
2. NC(=O)N/N=C/c1ccc([N+](=O)[O-])o1
3. COc1ccc(/C=N/N=C/c2ccc([N+](=O)[O-])o2)cc1

Result string:
["< 4.00", "< 4.00", "< 4.00"]

Would you mind listing pIC50 for each of the following molecules?
1. O=[N+]([O-])c1ccc(/C=N/N=C/c2ccc(F)cc2)s1
2. O=[N+]([O-])c1ccc(/C=N/N=C/c2ccc([N+](=O)[O-])o2)cc1

Result string:
["< 4.00", 4.78]

Would you mind listing pIC50 for each of the following molecules?
1. Cc1ccc(/C=N/N=C/c2ccc([N+](=O)[O-])o2)cc1
2. O=C(Cn1ccnc1[N+](=O)[O-])NCc1ccccc1
3. O=[N+]([O-])c1ccc(/C=N/N=C/c2ccccc2)s1
4. O=[N+]([O-])c1ccc(/C=N/N=C/c2ccc(Br)cc2)o1
5. O=Cc1ccc([N+](=O)[O-])s1

Result string:
1. < 4.00
2. < 4.00
3. < 4.00
4. < 4.00
5. 4.57

Would you mind listing pIC50 for each of the following molecules?
1. O=[N+]([O-])c1ccc(/C=N/N=C/c2ccc(O)cc2)s1
2. O=[N+]([O-])c1ccc(/C=N/N=C/c2ccc(O)cc2)o1
3. O=[N+]([O-])c1ccc(/C=N/N=C/c2ccc(OCc3ccccc3)cc2)s1

Result string:
4.64
4.34
< 4.00

----------
Test: in vitro
Conditions: monkey, Vero cells
Description: Selectivity index, ratio of IC50 for cytotoxicity against african green monkey Vero cells assessed as inhibition of cell growth to IC50 for antileishmanial activity against Leishmania donovani MHOM/IN/95/9515 amastigote assessed as inhibition of parasite growth
Kindly supply the reported selectivity ratio values for the records listed here.
Numbers only.

{"COMPOUND STRUCTURE": "O=[N+]([O-])c1ccc(/C=N/N=C/c2ccc(O)cc2)s1", "REPORTED": 97}

Would you mind listing selectivity ratio for each of the following compounds?
1. O=[N+]([O-])c1ccc(/C=N/N=C/c2ccc(O)cc2)o1
2. COc1ccc(/C=N/N=C/c2ccc([N+](=O)[O-])o2)cc1
3. NC(=O)N/N=C/c1ccc([N+](=O)[O-])o1
4. O=[N+]([O-])c1ccc(/C=N/N=C/c2ccc(OCc3ccccc3)cc2)o1
5. O=[N+]([O-])c1ccc(/C=N/N=C/c2ccc(Br)cc2)o1
6. O=[N+]([O-])c1ccc(/C=N/N=C/c2ccccc2)s1
7. O=[N+]([O-])c1ccc(/C=N/N=C/c2ccc([N+](=O)[O-])o2)cc1

Result string:
[7, 22, 59, 400, 16, 6, 22]

----------
System: Trypanosoma cruzi
Assay: Antitrypanosomal activity against Trypanosoma cruzi epimastigotes assessed as parasite growth inhibition incubated for 48 hrs by resazurin staining based analysis
Format: functional, organism-based
QUANTITY NAME: IC50 (µM)
Answers are plain numbers, in µM.

Guide cases for IC50, answers given:
{"COMPOUND STRUCTURE": "Cc1ccc(/C=N/N=C/c2ccc([N+](=O)[O-])o2)cc1", "IC50 / µM": 3.69}
{"COMPOUND STRUCTURE": "O=[N+]([O-])c1ccc(/C=N/N=C/c2ccc(OCc3ccccc3)cc2)o1", "IC50 / µM": 95.2}
{"COMPOUND STRUCTURE": "O=[N+]([O-])c1ccc(/C=N/N=C/c2ccc(F)cc2)o1", "IC50 / µM": 3.56}
{"COMPOUND STRUCTURE": "O=[N+]([O-])c1ccc(/C=N/N=C/c2ccc([N+](=O)[O-])o2)cc1", "IC50 / µM": 2.63}
{"COMPOUND STRUCTURE": "NC(=O)N/N=C/c1ccc([N+](=O)[O-])o1", "IC50 / µM": 7.83}
{"COMPOUND STRUCTURE": "O=[N+]([O-])c1ccc(/C=N/N=C/c2ccccc2)s1", "IC50 / µM": 9.21}

Attention now shifts to the item below.
Reported IC50 for O=[N+]([O-])c1ccc(/C=N/N=C/c2ccc(Br)cc2)o1 was 46.1

----------
Assay: Selectivity index, ratio of IC50 for cytotoxicity against African green monkey Vero cells assessed as inhibition of cell growth to IC50 for antitrypanosomal activity against Trypanosoma cruzi trypomastigotes assessed as parasite growth inhibition
Format: toxicity, cell-based
Settings: read-out: Ratio IC50
Kindly supply the reported selectivity ratio values for the records listed here.
Numbers only.

Guide cases for selectivity ratio, answers given:
{"COMPOUND STRUCTURE": "O=[N+]([O-])c1ccc(/C=N/N=C/c2ccc([N+](=O)[O-])o2)cc1", "QUANTITY NAME": "selectivity ratio", "REPORTED": 15}
{"COMPOUND STRUCTURE": "O=Cc1ccc([N+](=O)[O-])s1", "QUANTITY NAME": "selectivity ratio", "REPORTED": 8}
{"COMPOUND STRUCTURE": "O=[N+]([O-])c1ccc(/C=N/N=C/c2ccccc2)o1", "QUANTITY NAME": "selectivity ratio", "REPORTED": 7}
{"COMPOUND STRUCTURE": "NC(=O)N/N=C/c1ccc([N+](=O)[O-])o1", "QUANTITY NAME": "selectivity ratio", "REPORTED": 45}
{"COMPOUND STRUCTURE": "O=[N+]([O-])c1ccc(/C=N/N=C/c2ccccc2)s1", "QUANTITY NAME": "selectivity ratio", "REPORTED": 17}

Would you mind listing selectivity ratio for each of the following molecules?
1. O=[N+]([O-])c1ccc(/C=N/N=C/c2ccc(F)cc2)s1
2. O=C(Cn1ccnc1[N+](=O)[O-])NCc1ccccc1
3. COc1ccc(/C=N/N=C/c2ccc([N+](=O)[O-])o2)cc1
4. Cc1ccc(/C=N/N=C/c2ccc([N+](=O)[O-])o2)cc1
5. O=[N+]([O-])c1ccc(/C=N/N=C/c2ccc(O)cc2)o1

Result string:
1. 15
2. 21
3. 8
4. 25
5. 11

Reported selectivity ratio for O=[N+]([O-])c1ccc(/C=N/N=C/c2ccc(O)cc2)s1 was 11

Where do these numbers come from? They come from ChEMBL document CHEMBL5329184.
